Listing of recorded melting point by entry.
quantity: melting point

In [3]: df
Out[3]:
                                    molecule     value_measured
 0  COc1cn(Cc2ccc(Br)c(Oc3cc(Cl)cc(C#N)c3)c2F)c(=O)[nH]c1=O [Compound I-19]    190 to 191.1 °C
 1  Cc1cc(=O)[nH]c(=O)n1Cc1ccc(Br)c(Oc2cc(Cl)cc(C#N)c2)c1F [Compound I-16]      227 to 228 °C
 2  N#Cc1cc(Cl)cc(Oc2c(Cl)ccc(Cn3cc(Cl)c(=O)[nH]c3=O)c2F)c1 [Compound I-18]    267.2 to 268 °C
 3  N#Cc1cc(Cl)cc(Oc2c(Br)ccc(CN3CC(=O)NC3=S)c2F)c1 [Compound I-28]      172 to 173 °C
 4  N#Cc1cc(Cl)cc(Oc2c(Br)ccc(Cn3cc(O)c(=O)[nH]c3=O)c2F)c1 [Compound I-30]      238 to 240 °C
 5  CCc1cn(Cc2ccc(Br)c(Oc3cc(Cl)cc(C#N)c3)c2F)c(=O)[nH]c1=O [Compound I-5]  224.6 to 225.6 °C
 6  Cc1cn(Cc2ccc(Br)c(Oc3cc(Cl)cc(C#N)c3)c2F)c(=S)[nH]c1=O [Compound I-23]      225 to 226 °C
 7  Cc1cn(Cc2ccc(Br)c(Oc3cc(C#N)cc(C#N)c3)c2F)c(=O)[nH]c1=O [Compound I-8]    235.6 to 236 °C
 8  N#Cc1cc(C#N)cc(Oc2c(Br)ccc(Cn3ccc(=O)[nH]c3=O)c2F)c1 [Compound I-11]      132 to 133 °C
 9  N#Cc1cc(Cl)cc(Oc2c(Br)ccc(Cn3ccc(N)nc3=O)c2F)c1 [Compound I-12]      240 to 245 °C
10  N#Cc1cc(Cl)cc(Oc2c(Br)ccc(Cn3cc(C(F)(F)F)c(=O)[nH]c3=O)c2F)c1 [Compound I-7]      110 to 112 °C
11  Cc1cn(CCc2ccc(Br)c(Oc3cc(Cl)cc(C#N)c3)c2F)c(=O)[nH]c1=O [Compound I-14]      198 to 200 °C
12  Cc1cn(Cc2ccc(Cl)c(Oc3cc(Cl)cc(C#N)c3)c2F)c(=O)[nH]c1=O [Compound I-17]    226 to 227.5 °C
13  N#Cc1cc(C#N)cc(Oc2c(Br)ccc(Cn3cc(Cl)c(=O)[nH]c3=O)c2F)c1 [Compound I-9]    255 to 255.6 °C
14  CC1CN(Cc2ccc(Br)c(Oc3cc(Cl)cc(C#N)c3)c2F)C(=O)NC1=O (centres unmarked) [Compound I-29]  227.8 to 228.6 °C
15  N#Cc1cc(Cl)cc(Oc2c(Br)ccc(Cn3cc(CO)c(=O)[nH]c3=O)c2F)c1 [Compound I-24]      226 to 227 °C
16  CCc1ccc(Cn2cc(C)c(=O)[nH]c2=O)c(F)c1Oc1cc(Cl)cc(C#N)c1 [Compound I-25]  180.5 to 181.5 °C
17  N#Cc1cc(Cl)cc(Oc2c(Br)ccc(CN3CC(=O)NC3=O)c2F)c1 [Compound I-20]  131.5 to 132.8 °C
18  N#Cc1cc(Cl)cc(Oc2c(Br)ccc(Cn3cc(F)c(=O)[nH]c3=O)c2F)c1 [Compound I-6]      234 to 236 °C
19  N#Cc1cc(Cl)cc(Oc2c(Br)ccc(Cn3cc(Cl)c(=O)[nH]c3=O)c2F)c1 [Compound I-4]  260.8 to 261.7 °C
20  N#Cc1cc(Cl)cc(Oc2c(Br)ccc(CN3CCC(=O)NC3=O)c2F)c1 [Compound I-1]    161.5 to 163 °C
21  Cc1cn(Cc2ccc(Br)c(Oc3cc(C#N)cc(C(F)F)c3)c2F)c(=O)[nH]c1=O [Compound I-27]  232.3 to 234.8 °C
22  C=CCC1C(=O)NC(=O)N1Cc1ccc(Br)c(Oc2cc(Cl)cc(C#N)c2)c1F (centres unmarked) [Compound I-22]      200 to 201 °C
23  N#Cc1cc(Cl)cc(Oc2c(Br)ccc(Cn3ccc(=O)[nH]c3=O)c2F)c1 [Compound I-3]    229 to 230.5 °C
24  Cc1cn(Cc2ccc(Br)c(Oc3cc(Cl)cc(C#N)c3)c2F)c(=O)nc1N [Compound I-13]  262.7 to 263.7 °C
25  C[C@@H]1C(=O)NC(=O)N1Cc1ccc(Br)c(Oc2cc(Cl)cc(C#N)c2)c1F [Compound I-21]      119 to 120 °C
26  N#Cc1cc(Cl)cc(Oc2c(Br)ccc(Cn3cc(C#N)c(=O)[nH]c3=O)c2F)c1 [Compound I-15]  246.9 to 247.8 °C
27  Cc1cn(Cc2ccc(Br)c(Oc3cc(Cl)cc(C#N)c3)c2F)c(=O)[nH]c1=O [Compound I-2]  223.1 to 224.2 °C
28  Cn1cc(Cc2ccc(Br)c(Oc3cc(Cl)cc(C#N)c3)c2F)c(=O)[nH]c1=O [Compound I-31]      226 to 227 °C
